// provenance: patent US7361658B2

Reported Emax values are given for each entry in this list.
- TARGET OR TEST SYSTEM: human c-mpl-Ba/F3 cells (Homo sapiens, UniProt P40238)
- Construct: expressed in transfected cells; host or cells: Ba/F3 (murine pro-B cells) expressing human c-mpl
- Sequence (P40238 26-635): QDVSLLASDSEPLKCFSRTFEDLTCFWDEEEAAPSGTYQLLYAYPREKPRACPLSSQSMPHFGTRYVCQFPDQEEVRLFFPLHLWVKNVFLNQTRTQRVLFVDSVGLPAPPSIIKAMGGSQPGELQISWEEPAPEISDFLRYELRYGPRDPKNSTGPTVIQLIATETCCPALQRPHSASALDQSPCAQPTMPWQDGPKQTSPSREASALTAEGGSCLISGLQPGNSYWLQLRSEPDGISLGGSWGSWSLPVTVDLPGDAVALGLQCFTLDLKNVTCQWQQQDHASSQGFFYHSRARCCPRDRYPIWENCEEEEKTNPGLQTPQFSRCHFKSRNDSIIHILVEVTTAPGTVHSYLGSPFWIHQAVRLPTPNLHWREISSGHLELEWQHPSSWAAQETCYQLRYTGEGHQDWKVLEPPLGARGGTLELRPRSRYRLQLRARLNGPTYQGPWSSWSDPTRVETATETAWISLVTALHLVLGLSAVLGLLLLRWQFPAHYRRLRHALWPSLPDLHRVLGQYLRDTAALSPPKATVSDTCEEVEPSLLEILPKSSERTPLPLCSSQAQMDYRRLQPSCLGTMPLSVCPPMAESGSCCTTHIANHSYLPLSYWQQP
- TEST DESCRIPTION: Human c-mpl-Ba/F3 cell growth test
- Format: cell-based
- EXPERIMENTAL SETUP: maximum cell growth activity; maximum of compound A defined as 100%; read-out: Efficacy
Entry rule: numbers only, all in %.

Answered cases to consult:
| COMPOUND | QUANTITY KIND | ENDPOINT VALUE |
| --- | --- | --- |
| CCCCN(C)Cc1sc(NC(=O)c2cnc(N3CCC(C(=O)O)CC3)c(Cl)c2)nc1-c1cc(Cl)cs1 [Example 71] | Emax | 110 |
| CN(Cc1sc(NC(=O)c2cnc(N3CCC(C(=O)O)CC3)c(Cl)c2)nc1-c1cc(Cl)cs1)C1CCCCC1 [Example 90] | Emax | 94 |
| C[C@@H]1CCCN1Cc1sc(NC(=O)c2cnc(N3CCC(C(=O)O)CC3)c(Cl)c2)nc1-c1cc(Cl)cs1 [Example 107] | Emax | 112 |
| CC(C)N(C)Cc1sc(NC(=O)c2cnc(N3CCC(C(=O)O)CC3)c(Cl)c2)nc1-c1cc(Cl)cs1 [Example 104] | Emax | 105 |

# next compound below
Specify measured Emax for C[C@H]1CCN(Cc2sc(NC(=O)c3cnc(N4CCC(C(=O)O)CC4)c(Cl)c3)nc2-c2cc(Cl)cs2)C1 [Example 109] .
95
